Target desc: cysteines in MDA-MB-231 and Ramos cells (Homo sapiens, UniProt Q99439)
Sequence (Q99439 whole entry, the tested form may be a part): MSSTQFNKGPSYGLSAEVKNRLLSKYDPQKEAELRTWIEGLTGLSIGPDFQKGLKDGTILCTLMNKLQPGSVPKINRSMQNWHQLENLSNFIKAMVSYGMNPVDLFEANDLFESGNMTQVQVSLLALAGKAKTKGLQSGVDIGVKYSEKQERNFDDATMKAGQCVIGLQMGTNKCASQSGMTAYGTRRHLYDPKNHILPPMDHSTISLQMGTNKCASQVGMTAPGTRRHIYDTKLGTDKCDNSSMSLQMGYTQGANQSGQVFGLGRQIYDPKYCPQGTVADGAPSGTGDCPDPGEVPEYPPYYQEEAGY
Experiment notes: Competitive isoTOP-ABPP in situ (fragment-treated cells)
Assay type: cell-based
Run parameters: 200 μM, insitu, 231
Measured metric: isoTOP-ABPP ratio Q99439_C164
Numbers only.

1. O=C(CCl)NC(=O)NC12CC3CC(CC(C3)C1)C2 [compound 12]: 0.9
2. O=C(CCl)NC12CC3CC(CC(C3)C1)C2 [compound 21]: 0.9

Batch request: isoTOP-ABPP ratio Q99439_C164 for each of the following compounds.
1. C=CC(=O)Nc1cc(F)c(N2CCN(C(=O)OC(C)(C)C)CC2)c(F)c1 [compound 38]
2. COc1ccccc1OCCNC(=O)CCl [compound 28]
3. CC1CCc2ccccc2N1C(=O)CCl (stereo not drawn) [compound 45]
4. Cc1ccc(C=C(C#N)C(=O)NCCN2CCOCC2)cc1 [compound 41]
5. C=CC(=O)N(Cc1cccnc1)c1cc(C(F)(F)F)cc(C(F)(F)F)c1 [compound 31]

[1.5, 0.9, 1.8, 0.4, 0.7]

Batch request: isoTOP-ABPP ratio Q99439_C164 for each of the following compounds.
1. O=C(CCl)NCCc1c[nH]c2ccccc12 [compound 13]
2. O=C(CCl)N1CCN(S(=O)(=O)c2ccccc2F)CC1 [compound 10]

0.9
1.2

---

Target desc: ZNF217 C286 (O75362) (Homo sapiens)
Sequence (O75362 whole entry): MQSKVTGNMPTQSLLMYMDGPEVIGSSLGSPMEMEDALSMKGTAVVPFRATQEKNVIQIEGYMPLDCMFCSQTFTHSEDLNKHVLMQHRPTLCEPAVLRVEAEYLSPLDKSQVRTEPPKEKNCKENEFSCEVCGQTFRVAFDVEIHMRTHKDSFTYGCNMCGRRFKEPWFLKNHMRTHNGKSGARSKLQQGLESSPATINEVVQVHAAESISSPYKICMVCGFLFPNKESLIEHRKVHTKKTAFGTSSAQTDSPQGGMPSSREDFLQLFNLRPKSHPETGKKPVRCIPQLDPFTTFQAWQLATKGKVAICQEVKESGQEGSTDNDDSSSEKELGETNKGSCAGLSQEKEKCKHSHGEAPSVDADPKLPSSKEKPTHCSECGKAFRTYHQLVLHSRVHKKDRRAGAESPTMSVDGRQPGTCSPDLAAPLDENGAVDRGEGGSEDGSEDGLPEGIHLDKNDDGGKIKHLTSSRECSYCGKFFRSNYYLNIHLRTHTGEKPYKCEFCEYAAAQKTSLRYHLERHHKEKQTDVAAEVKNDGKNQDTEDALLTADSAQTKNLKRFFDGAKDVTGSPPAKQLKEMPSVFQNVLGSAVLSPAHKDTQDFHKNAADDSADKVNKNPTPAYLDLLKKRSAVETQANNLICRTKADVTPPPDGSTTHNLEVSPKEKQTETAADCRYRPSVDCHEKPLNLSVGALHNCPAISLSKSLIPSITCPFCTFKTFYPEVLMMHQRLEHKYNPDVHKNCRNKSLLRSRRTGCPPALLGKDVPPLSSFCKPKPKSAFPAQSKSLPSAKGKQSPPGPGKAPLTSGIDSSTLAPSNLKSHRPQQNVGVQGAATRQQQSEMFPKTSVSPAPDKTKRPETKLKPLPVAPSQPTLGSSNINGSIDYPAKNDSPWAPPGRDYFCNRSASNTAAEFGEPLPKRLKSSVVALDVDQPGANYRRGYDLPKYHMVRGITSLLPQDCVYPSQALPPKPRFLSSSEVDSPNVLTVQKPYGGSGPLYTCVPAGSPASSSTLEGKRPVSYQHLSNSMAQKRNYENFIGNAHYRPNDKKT
Experiment notes: Competitive isoTOP-ABPP, cell lysates
Assay type: binding
Run parameters: 500 μm in-vitro ramos_231
Task for the reader: assign each of the following molecules its reported isoTOP-ABPP ratio (reactivity profile), O75362_C286.
Numbers only.

Below, each entry is followed by its recorded isoTOP-ABPP ratio (reactivity profile), O75362_C286 result.
1. O=C(CCl)NC12CC3CC(CC(C3)C1)C2: 0.9
2. N#C/C(=C\c1cc(C(F)(F)F)cc(C(F)(F)F)c1)C(N)=O: 20.0
3. CC(Cl)C(=O)Nc1cc(C(F)(F)F)cc(C(F)(F)F)c1 (stereo not drawn): 20.0
4. O=C(CCl)N1CCN(CC(=O)N2CCOCC2)CC1: 0.9
5. O=C(CCl)N1CCC(C(O)(c2ccccc2)c2ccccc2)CC1: 1.3

Turning to the following molecule.
Report isoTOP-ABPP ratio (reactivity profile), O75362_C286 for "COc1ccccc1OCCNC(=O)CCl" 1.0

---

Target desc: cysteines in MDA-MB-231 and Ramos cells (Homo sapiens, UniProt P42166)
Sequence (P42166 1-694): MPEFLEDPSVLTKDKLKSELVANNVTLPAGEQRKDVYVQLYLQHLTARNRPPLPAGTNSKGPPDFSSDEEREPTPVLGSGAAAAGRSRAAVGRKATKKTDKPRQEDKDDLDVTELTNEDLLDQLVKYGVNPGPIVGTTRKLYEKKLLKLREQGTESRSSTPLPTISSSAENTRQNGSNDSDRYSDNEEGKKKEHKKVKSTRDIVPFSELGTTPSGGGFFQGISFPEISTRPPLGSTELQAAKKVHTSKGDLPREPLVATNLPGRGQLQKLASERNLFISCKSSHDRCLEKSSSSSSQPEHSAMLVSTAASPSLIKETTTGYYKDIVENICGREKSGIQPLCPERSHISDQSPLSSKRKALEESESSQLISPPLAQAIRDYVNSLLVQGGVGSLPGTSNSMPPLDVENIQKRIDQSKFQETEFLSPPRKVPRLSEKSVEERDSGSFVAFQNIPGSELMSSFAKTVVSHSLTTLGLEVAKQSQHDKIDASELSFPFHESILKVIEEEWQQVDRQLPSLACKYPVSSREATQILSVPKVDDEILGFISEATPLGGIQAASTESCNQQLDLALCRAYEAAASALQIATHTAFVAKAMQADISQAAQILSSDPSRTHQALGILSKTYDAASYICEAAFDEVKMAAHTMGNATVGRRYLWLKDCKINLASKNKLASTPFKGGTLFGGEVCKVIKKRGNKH
Experiment notes: Competitive isoTOP-ABPP in situ (fragment-treated cells)
Type: cell-based
Run parameters: 200 μM, insitu, 231
Measured metric: isoTOP-ABPP ratio P42166_C561
Answers are plain numbers.

Below, each entry is followed by its recorded isoTOP-ABPP ratio P42166_C561 result.
1) C=CC(=O)Nc1cc(F)c(N2CCN(C(=O)OC(C)(C)C)CC2)c(F)c1: 20.0
2) Cc1ccc(C=C(C#N)C(=O)NCCN2CCOCC2)cc1: 0.7
3) CC1CCc2ccccc2N1C(=O)CCl (centres unmarked): 20.0
4) COc1ccccc1OCCNC(=O)CCl: 1.1

Report isoTOP-ABPP ratio P42166_C561 for "O=C(CCl)NC(=O)NC12CC3CC(CC(C3)C1)C2" 16.1

Source of measurements: patent US10670605B2
